- System: rodent lifetime carcinogenesis bioassay, tumor incidence TD50
- Procedure text: carcinogenic potency in animals, long-term in vivo studies, CPDB compilation (AID 1745844)
- Condition parameters: rat; strain Osborne-Mendel; males; by gavage; site: adrenal gland; lesion: cortical adenoma; dosed 104 weeks; study length 105 weeks

{"Mol smiles": "Clc1cc2c(cc1Cl)Oc1cc(Cl)c(Cl)cc1O2", "Experimental target": "rodent lifetime carcinogenesis bioassay, tumor incidence TD50", "TD50": "1.21e-05 mg/kg/day"}

###

- System: rodent lifetime carcinogenesis bioassay, tumor incidence TD50
- Procedure text: carcinogenic potency in animals, long-term in vivo studies, CPDB compilation (AID 1745844)
- Condition parameters: rat; strain Fischer 344; males; by gavage; site: colon; lesion: polypoid adenoma; dosed 52 weeks; study length 52 weeks
Measured parameter: TD50

{"Molecule": "O=P(OCC(Br)CBr)(OCC(Br)CBr)OCC(Br)CBr (stereo unspecified)", "Data value": "13.4 mg/kg/day"}

###

- Test system: rodent lifetime carcinogenesis bioassay, tumor incidence TD50
- Procedure text: carcinogenic potency in animals, long-term in vivo studies, CPDB compilation (AID 1745844)
- Condition parameters: rat; strain Fischer 344; males; in drinking water; site: liver; lesion: several types; types named in the paper; dosed 104 weeks; study length 120 weeks
Calls of active or inactive are those of the source. The rule behind the calls is not given here.

{"Mol smiles": "O=NO", "TD50": "1310 mg/kg/day (inactive)"}

###

- System: rodent lifetime carcinogenesis bioassay, tumor incidence TD50
- Procedure text: carcinogenic potency in animals, long-term in vivo studies, CPDB compilation (AID 1745844)
- Condition parameters: rat; strain Osborne-Mendel; males; in feed; site: adrenal gland; lesion: cortical adenoma; dosed 78 weeks; study length 110 weeks
The source made the active and inactive calls. How the calls were made is not given here.
Measured parameter: TD50

{"Mol smiles": "CCOC(=O)C(O)(c1ccc(Cl)cc1)c1ccc(Cl)cc1", "Data value": "186 mg/kg/day (inactive)"}

###

- System: rodent lifetime carcinogenesis bioassay, tumor incidence TD50
- Procedure text: carcinogenic potency in animals, long-term in vivo studies, CPDB compilation (AID 1745844)
- Condition parameters: mouse; strain B6C3F1; males; oral dosing; site: any site (literature study); lesion: several types; types named in the paper; dosed 80 weeks; study length 80 weeks

{"Molecule": "CC(COc1ccc(C(C)(C)C)cc1)OS(=O)OCCCl (stereo unspecified)", "TD50 / mg/kg/day": 103}

###

- Tested on: rodent lifetime carcinogenesis bioassay, tumor incidence TD50
- Procedure text: carcinogenic potency in animals, long-term in vivo studies, CPDB compilation (AID 1745844)
- Condition parameters: mouse; strain CD-1 HaM/ICR; males; in feed; site: any site (literature study); lesion: several types; types named in the paper; dosed 68 weeks; study length 77 weeks

{"Mol smiles": "Nc1c(Cl)cc(Cl)cc1Cl", "TD50 / mg/kg/day": 206}

###

- Test system: rodent lifetime carcinogenesis bioassay, tumor incidence TD50
- Procedure text: carcinogenic potency in animals, long-term in vivo studies, CPDB compilation (AID 1745844)
- Condition parameters: rat; strain Fischer 344; females; by gavage; site: forestomach; lesion: squamous-cell carcinoma; dosed 103 weeks; study length 104 weeks

{"Compound": "c1cc(OCC2CO2)cc(OCC2CO2)c1 (stereo unspecified)", "TD50": "5.93 mg/kg/day"}

###

- Test system: rodent lifetime carcinogenesis bioassay, tumor incidence TD50
- Procedure text: carcinogenic potency in animals, long-term in vivo studies, CPDB compilation (AID 1745844)
- Condition parameters: rat; strain Osborne-Mendel; males; in drinking water; site: nasal turbinate; lesion: squamous-cell carcinoma; dosed 110 weeks; study length 110 weeks

{"Mol smiles": "C1COCCO1", "Experimental target": "rodent lifetime carcinogenesis bioassay, tumor incidence TD50", "TD50": "168 mg/kg/day"}
